- EXPERIMENT_DESCRIPTION: Cytotoxicity determination by CCK-8 assay, HepG2.2.15 cells
- Assay type: cell-based
- CONDITIONS_USED: human, 6 days treatment
Each record gets a class by CC50 at 6 days: c1 (below 20 nM), c2 (20 nM to below 100 nM), c3 (100 nM or more)

Consider the worked cases shown below.
CCOC(=O)C1=C(C23C4C5C2C2C3C4C52C(=O)O)NC(c2nccs2)=N[C@H]1c1cccc(F)c1C (single isomer, unassigned)	c1
CCOC(=O)C1=C(C23C4C5C2C2C3C4C52C(=O)O)NC(c2nccs2)=N[C@@H]1c1ccc(F)c(F)c1Cl (stereo in doubt)	c1
COC(=O)C1=C(C23C4C5C2C2C3C4C52C(=O)O)NC(c2nccs2)=N[C@@H]1c1ccc(F)c(F)c1Br (stereo in doubt)	c2

Let us examine a further case.
Query: Class label required: COC(=O)C1=C(C23C4C5C2C2C3C4C52CC(=O)O)NC(c2nccs2)=N[C@@H]1c1ccc(F)cc1Cl (single isomer, unassigned)
Response: c3

###

- System: HBV
- EXPERIMENT_DESCRIPTION: Anti-HBV activity: HBV DNA in culture medium by qPCR, HepG2.2.15 cells
- Assay type: cell-based
- CONDITIONS_USED: Hepatitis B virus, 144 h, 6 days treatment
METRIC: EC50

CCOC(=O)C1=C(C23C4C5C2C2C3C4C52C(=O)O)NC(c2nccs2)=N[C@H]1c1ccc(F)cc1Br (single isomer, unassigned) [Ia-6]	> 12.5 µM

Query: Give the reported value of EC50 for this record: CCCOC(=O)C1=C(C23C4C5C2C2C3C4C52C(=O)O)NC(c2nccs2)=NC1c1ccc(F)c(F)c1Cl (single isomer, unassigned) [Ib-11]
Response: 22 µM

Query: Give the measured EC50 for COC(=O)C1=C(C23C4C5C2C2C3C4C52C(=O)O)NC(c2nccs2)=N[C@@H]1c1ccc(F)cc1Cl (single isomer, unassigned) [Ib-3]
Response: 70 µM

Query: Supply EC50 value. Item: COC(=O)C1=C(C23C4C5C2C2C3C4C52C(=O)O)NC(c2nccs2)=N[C@@H]1c1ccc(F)c(F)c1F (stereo in doubt) [Ib-22]
Response: > 25 µM

Query: Give EC50 for the following molecule: CCOC(=O)C1=C(C23C4C5C2C2C3C4C52C(=O)O)NC(c2nccs2)=N[C@@H]1c1ccccc1Cl (stereo in doubt) [Ib-25]
Response: > 50 µM

Query: Item CCOC(=O)C1=C(C23C4C5C2C2C3C4C52C(=O)O)NC(c2nccs2)=NC1c1ccc(F)cc1C (single isomer, unassigned) [Ia-5] : provide EC50
Response: > 50 µM

Query: Identify measured EC50 associated with CCOC(=O)C1=C(C23C4C5C2C2C3C4C52C(=O)O)NC(c2ncc(F)cc2F)=NC1c1cccc(F)c1C (single isomer, unassigned) [Ib-18]
Response: > 12.5 µM

###

Readings of pEC50 for the listed compounds
- Test system: HBV
- EXPERIMENT_DESCRIPTION: Anti-HBV activity: HBV DNA in culture medium by qPCR, HepG2.2.15 cells
- Format: cell-based
- CONDITIONS_USED: Hepatitis B virus, 144 h, 6 days treatment
- Protocol: HepG2.2.15 (the HepG2.2.15 cell line can be produced by transfection of the HepG2 cell line as described in Sells, Chen, and Acs 1987 (Proc. Natl. Acad. Sci. USA 84: 1005-1009), and the HepG2 cell line is available from ATCC® under number HB-8065™) […] The change of HBV DNA level induced by the compounds was assessed by quantitative real-time polymerase chain reaction (qPCR). […] EC50 and CC50 values are calculated by the GRAPHPAD PRISM software.
pEC50 here is simply -log10 of the concentration when that concentration is written in mol/L.

CCOC(=O)C1=C(C23C4C5C2C2C3C4C52C(=O)O)NC(c2nccs2)=NC1c1ccc(F)c(F)c1F (single isomer, unassigned)	4.34
CCOC(=O)C1=C(C23C4C5C2C2C3C4C52C(=O)O)NC(c2nccs2)=N[C@H]1c1cccc(F)c1C (single isomer, unassigned)	4.31
COC(=O)C1=C(C23C4C5C2C2C3C4C52C(=O)O)NC(c2nccs2)=N[C@@H]1c1cccc(F)c1Br (stereo in doubt)	4.60
CCOC(=O)C1=C(C23C4C5C2C2C3C4C52C(=O)O)NC(c2nccs2)=N[C@@H]1c1ccc(F)c(F)c1Cl (stereo in doubt)	4.60
COC(=O)C1=C(C23C4C5C2C2C3C4C52CC(=O)O)NC(c2nccs2)=N[C@@H]1c1ccc(F)cc1Cl (single isomer, unassigned)	4.38
COC(=O)C1=C(C23C4C5C2C2C3C4C52c2nc(C(=O)O)co2)NC(c2nccs2)=N[C@@H]1c1ccc(F)cc1Cl (single isomer, unassigned)	4.62

# ---- query compound ----
Query: Identify the reported pEC50 for the following entry. COC(=O)C1=C(C23C4C5C2C2C3C4C52C(=O)O)NC(c2nccs2)=N[C@@H]1c1ccc(F)c(F)c1Cl (single isomer, unassigned)
Response: 4.29

###

- EXPERIMENT_DESCRIPTION: Cytotoxicity determination by CCK-8 assay, HepG2.2.15 cells
- Type: cell-based
- CONDITIONS_USED: human, 6 days treatment
- Description: HepG2.2.15 (the HepG2.2.15 cell line can be produced by transfection of the HepG2 cell line as described in Sells, Chen, and Acs 1987 (Proc. Natl. Acad. Sci. USA 84: 1005-1009), and the HepG2 cell line is available from ATCC® under number HB-8065™) […] Cell viability was determined by CCK-8 assay. […] The absorbance at 450 nm wavelength and the absorbance at 630 nm wavelength as reference was measured. EC50 and CC50 values are calculated by the GRAPHPAD PRISM software.
METRIC: CC50 at 6 days (nM)
Field format: number, assumed nM, no unit text.

Query: Quote CC50 at 6 days reported for CCOC(=O)C1=C(C23C4C5C2C2C3C4C52C(=O)O)NC(c2nccs2)=N[C@@H]1c1ccc(F)c(F)c1Br (stereo in doubt) [Ib-14] please.
Response: 7

Query: Respond only with CC50 at 6 days recorded for COC(=O)C1=C(C23C4C5C2C2C3C4C52C(=O)O)NC(c2nccs2)=N[C@@H]1c1ccc(F)c(F)c1C (single isomer, unassigned) [Ia-3]
Response: 45

Query: Indicate its recorded CC50 at 6 days; the compound in question is CCOC(=O)C1=C(C23C4C5C2C2C3C4C52C(=O)O)NC(c2nccn2C)=NC1c1ccc(F)c(F)c1Cl (single isomer, unassigned) [Ia-4]
Response: 55

###

- EXPERIMENT_DESCRIPTION: Cytotoxicity determination by CCK-8 assay, HepG2.2.15 cells
- Type: cell-based
- CONDITIONS_USED: human, 6 days treatment
METRIC: CC50 at 6 days (µM)
Numeric answer only, unit µM assumed.

// worked examples, CC50 at 6 days included
COC(=O)C1=C(C23C4C5C2C2C3C4C52C(=O)O)NC(c2nccs2)=N[C@@H]1c1ccc(F)cc1Cl (single isomer, unassigned)	0.084
CCOC(=O)C1=C(C23C4C5C2C2C3C4C52C(=O)O)NC(c2nccs2)=N[C@@H]1c1cccc(F)c1Cl (stereo in doubt)	0.019
CCOC(=O)C1=C(C23C4C5C2C2C3C4C52C(=O)O)NC(c2nccs2)=N[C@H]1c1ccc(F)cc1 (stereo in doubt)	0.223

Query: Complete the entry with CC50 at 6 days for COC(=O)C1=C(C23C4C5C2C2C3C4C52C(=O)O)NC(c2nccs2)=N[C@@H]1c1ccc(F)cc1Br (stereo in doubt)
Response: 0.071

Query: Name the recorded CC50 at 6 days of the compound listed here: COC(=O)C1=C(C23C4C5C2C2C3C4C52C(=O)O)NC(c2nccs2)=N[C@@H]1c1ccc(F)c(F)c1Cl (single isomer, unassigned)
Response: 0.022

Query: Given the compound COC(=O)C1=C(C23C4C5C2C2C3C4C52C(=O)O)NC(c2nccs2)=N[C@@H]1c1cccc(F)c1Cl (single isomer, unassigned) , write its reported CC50 at 6 days.
Response: 0.132

Query: Name the recorded CC50 at 6 days of the item COC(=O)C1=C(C23C4C5C2C2C3C4C52C(=O)O)NC(c2nccs2)=NC1c1ccc(F)cc1C (single isomer, unassigned) in your answer.
Response: 0.25

Query: Complete the entry with CC50 at 6 days for CCOC(=O)C1=C(C23C4C5C2C2C3C4C52C(=O)O)NC(c2nccs2)=N[C@H]1c1ccc(F)cc1Br (single isomer, unassigned)
Response: 0.0115

###

- System: HBV
- EXPERIMENT_DESCRIPTION: Anti-HBV activity: HBV DNA in culture medium by qPCR, HepG2.2.15 cells
- Format: cell-based
- CONDITIONS_USED: Hepatitis B virus, 144 h, 6 days treatment
pEC50: −log10 of the molar value.
Entries and their pEC50 values follow.

Use the examples below as a reference point.
COC(=O)C1=C(C23C4C5C2C2C3C4C52C(=O)O)NC(c2nccs2)=N[C@@H]1c1cccc(F)c1C (stereo in doubt) [Ia-1]	< 4.30
CCOC(=O)C1=C(C23C4C5C2C2C3C4C52C(=O)O)NC(c2nccs2)=NC1c1ccc(Cl)c(F)c1 (single isomer, unassigned) [Ib-23]	< 5.20
CCOC(=O)C1=C(C23C4C5C2C2C3C4C52C(=O)O)NC(c2nccs2)=N[C@@H]1c1ccc(F)cc1Cl (stereo in doubt) [Ib-6]	< 4.30
COC(=O)C1=C(C23C4C5C2C2C3C4C52C(=O)O)NC(c2nccs2)=N[C@@H]1c1ccc(F)c(F)c1C (single isomer, unassigned) [Ia-3]	< 4.30

Kindly consider the entry below.
Query: Tell me pEC50 reported for COC(=O)C1=C(C23C4C5C2C2C3C4C52C(=O)O)NC(c2nccs2)=N[C@@H]1c1ccc(F)cc1Br (stereo in doubt) [Ib-16]
Response: < 4.30
